Entries and their protein stability index
B1: SLC19A2 (parent)
chain: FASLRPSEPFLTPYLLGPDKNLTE

Variants of: B1
testProtocol: protein stability index of a GFP-peptide fusion (GPS, HEK-293T) (PSI 1-6); higher = more stable;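 further: lentivirally expressed fusions sorted by FACS into six bins by GFP to DsRed ratio, PSI derived from sequencing read proportions per bin multiplied by bin number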
reportedConditions: c terminus: a fixed tail appended
// return a plain number; no unit text

Before answering, review these 10 worked examples.
[Q] // query protein stability index value for entry "D19F"
[A] 1.87

[Q] Also "T12H" ?
[A] 1.72

[Q] Also "P9W" ?
[A] 2.12

[Q] Also "S3R" ?
[A] 1.71

[Q] Also "D19S" ?
[A] 2.5

[Q] Also "N21E" ?
[A] 2.02

[Q] Also "L16R" ?
[A] 2.44

[Q] Also "L11P" ?
[A] 2.03

[Q] Also "S3W" ?
[A] 1.54

[Q] Also "T23G" ?
[A] 1.86

***
[Q] // query protein stability index value for entry "S7R"
[A] 1.71

[Q] Also "F1K" ?
[A] 3.79
